target: CaMK1 (human); assay: radiometric filter-binding kinase assay; conditions: compound 10.0 µM
So I've got a bunch of molecules here, and I need their residual activity values.
Respond with the bare value in %.

### Prompt Which residual activity value is on record for COc1cc(C(=O)N2CCOCC2)c(F)cc1Nc1ncc(C(F)(F)F)c(NC2CC2)n1 ?
### Response 51

### Prompt Queued: CC1=C(CO)C(=O)O[C@@H]([C@@H](C)[C@H]2CC[C@H]3[C@@H]4C[C@H]5O[C@]56[C@@H](O)C=CC(=O)[C@]6(C)C4CC[C@]23C)C1 (stereo not given in full)
### Response 30

### Prompt Queued: Cc1cccc(Nc2nn(C)c3ncnc(N)c23)c1
### Response 89

### Prompt Queued: CCn1c(-c2nonc2N)nc2cncc(CNC3CCNCC3)c21
### Response 109

### Prompt Queued: Cc1cc(SCc2sc(-c3ccc(C(F)(F)F)cc3)nc2C)ccc1OCC(=O)O
### Response 62

### Prompt Queued: Nc1cccc2c1CN(C1CCC(=O)NC1=O)C2=O (stereo not given)
### Response 91

### Prompt Queued: O=C(O)c1cc(N=Nc2ccc(S(=O)(=O)Nc3ccccn3)cc2)ccc1O
### Response 91

### Prompt Queued: N#Cc1c(C2CCNCC2)cc(-c2c(O)cccc2OCC2CC2)nc1N
### Response 27

### Prompt Queued: FC(F)(F)c1ccc(-c2ccc(Oc3cncc4sc(-c5nn[nH]n5)cc34)cc2)cc1
### Response 73

### Prompt Queued: O=S(=O)(c1ccc(F)c2nonc12)N1CCN(c2ncc(C(F)(F)F)cc2Cl)CC1
### Response 92

### Prompt Queued: CC(C)C[C@H](NC(=O)CNC(=O)c1cc(Cl)ccc1Cl)B1OC(=O)CC(CC(=O)O)(C(=O)O)O1 (stereo not given in full)
### Response 80

### Prompt Queued: NC(=O)c1c(NC(=O)C2CC2)sc2c1CCCC2
### Response 70

### Prompt Queued: C[C@H]1CCCC(=O)CCC/C=C/c2cc(O)cc(O)c2C(=O)O1
### Response 75

### Prompt Queued: O=C(N[C@@H](COc1ccc2[nH]c(=O)[nH]c2c1)c1ccccc1)c1cccn(Cc2ccc(F)c(F)c2)c1=O
### Response 51

### Prompt Queued: COc1ccc2c(c1)c1c3c(c4c5ccccc5n(C)c4c1n2CC(O)CN(C)C)C(=O)NC3=O (stereo not given)
### Response 16

### Prompt Queued: Cc1ccc(Sc2cnc(Nc3cccc(Br)n3)s2)cc1C(=O)N1CCN(C(=O)CN)CC1
### Response 11

### Prompt Queued: O=C(NOC[C@H](O)CO)c1ccc(F)c(F)c1Nc1ccc(I)cc1Cl
### Response 91

### Prompt Queued: COc1cc2ncn(-c3cc(OCc4ccccc4S(C)(=O)=O)c(C#N)s3)c2cc1OC
### Response 80

### Prompt Queued: Cc1ccc2c(c1)C(=O)[C@@]1(O)CCN(c3ccccc3)C1=N2
### Response 74

### Prompt Queued: CCCC(CCC)C(=O)O
### Response 107

* * *

So I've got a bunch of compounds here, and I need their residual activity values.
system: RPS6KB1 (human), P23443 [T412E]; experiment: radiometric filter-binding kinase assay; details: compound 10.0 µM
Sequence (P23443 whole entry T412E, looked up): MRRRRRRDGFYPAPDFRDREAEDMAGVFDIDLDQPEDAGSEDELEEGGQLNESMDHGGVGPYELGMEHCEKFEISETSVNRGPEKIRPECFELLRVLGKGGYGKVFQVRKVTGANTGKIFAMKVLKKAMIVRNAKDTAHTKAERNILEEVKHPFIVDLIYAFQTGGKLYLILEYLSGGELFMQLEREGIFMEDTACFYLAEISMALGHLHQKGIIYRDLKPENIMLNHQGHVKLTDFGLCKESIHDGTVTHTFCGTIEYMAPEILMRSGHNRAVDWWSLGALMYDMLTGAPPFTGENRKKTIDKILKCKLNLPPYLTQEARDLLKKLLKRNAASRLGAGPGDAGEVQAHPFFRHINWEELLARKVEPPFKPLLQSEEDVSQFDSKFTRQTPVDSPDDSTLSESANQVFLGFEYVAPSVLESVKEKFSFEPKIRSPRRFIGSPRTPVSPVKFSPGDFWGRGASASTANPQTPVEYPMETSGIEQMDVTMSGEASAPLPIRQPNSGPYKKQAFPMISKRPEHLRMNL
Respond with the bare value in %.

### Prompt Which residual activity value is on record for COc1cc2ncn(-c3cc(OCc4ccccc4S(C)(=O)=O)c(C#N)s3)c2cc1OC ?
### Response 66

### Prompt Queued: N#Cc1c(C2CCNCC2)cc(-c2c(O)cccc2OCC2CC2)nc1N
### Response 53

### Prompt Queued: O=C(NOC[C@H](O)CO)c1ccc(F)c(F)c1Nc1ccc(I)cc1Cl
### Response 81

### Prompt Queued: FC(F)(F)c1ccc(-c2ccc(Oc3cncc4sc(-c5nn[nH]n5)cc34)cc2)cc1
### Response 50

### Prompt Queued: O=S(=O)(c1ccc(F)c2nonc12)N1CCN(c2ncc(C(F)(F)F)cc2Cl)CC1
### Response 95

### Prompt Queued: Cc1cccc(Nc2nn(C)c3ncnc(N)c23)c1
### Response 137

### Prompt Queued: CNc1nc(-c2ccc3c(N)n[nH]c3c2)cc(N2C[C@@H](C(=O)NC3CCCCC3)CC[C@H]2C)n1
### Response 81
